Below: a set of entries, each annotated with reported logFC.mEQ.over.Luc.
Target: mouse ADAMTS7 (Mus musculus, UniProt Q68SA9, E373Q)
Construct: Full-length mouse Adamts7 1-1857 (Uniprot Q68SA9, WT or E373Q catalytic mutant); expressed in transfected cells; host or cells: Human Coronary Artery Smooth Muscle Cells (HCA-SMC, Lonza), adenovirus 50 MOI
Sequence (Q68SA9 221-1657 E373Q): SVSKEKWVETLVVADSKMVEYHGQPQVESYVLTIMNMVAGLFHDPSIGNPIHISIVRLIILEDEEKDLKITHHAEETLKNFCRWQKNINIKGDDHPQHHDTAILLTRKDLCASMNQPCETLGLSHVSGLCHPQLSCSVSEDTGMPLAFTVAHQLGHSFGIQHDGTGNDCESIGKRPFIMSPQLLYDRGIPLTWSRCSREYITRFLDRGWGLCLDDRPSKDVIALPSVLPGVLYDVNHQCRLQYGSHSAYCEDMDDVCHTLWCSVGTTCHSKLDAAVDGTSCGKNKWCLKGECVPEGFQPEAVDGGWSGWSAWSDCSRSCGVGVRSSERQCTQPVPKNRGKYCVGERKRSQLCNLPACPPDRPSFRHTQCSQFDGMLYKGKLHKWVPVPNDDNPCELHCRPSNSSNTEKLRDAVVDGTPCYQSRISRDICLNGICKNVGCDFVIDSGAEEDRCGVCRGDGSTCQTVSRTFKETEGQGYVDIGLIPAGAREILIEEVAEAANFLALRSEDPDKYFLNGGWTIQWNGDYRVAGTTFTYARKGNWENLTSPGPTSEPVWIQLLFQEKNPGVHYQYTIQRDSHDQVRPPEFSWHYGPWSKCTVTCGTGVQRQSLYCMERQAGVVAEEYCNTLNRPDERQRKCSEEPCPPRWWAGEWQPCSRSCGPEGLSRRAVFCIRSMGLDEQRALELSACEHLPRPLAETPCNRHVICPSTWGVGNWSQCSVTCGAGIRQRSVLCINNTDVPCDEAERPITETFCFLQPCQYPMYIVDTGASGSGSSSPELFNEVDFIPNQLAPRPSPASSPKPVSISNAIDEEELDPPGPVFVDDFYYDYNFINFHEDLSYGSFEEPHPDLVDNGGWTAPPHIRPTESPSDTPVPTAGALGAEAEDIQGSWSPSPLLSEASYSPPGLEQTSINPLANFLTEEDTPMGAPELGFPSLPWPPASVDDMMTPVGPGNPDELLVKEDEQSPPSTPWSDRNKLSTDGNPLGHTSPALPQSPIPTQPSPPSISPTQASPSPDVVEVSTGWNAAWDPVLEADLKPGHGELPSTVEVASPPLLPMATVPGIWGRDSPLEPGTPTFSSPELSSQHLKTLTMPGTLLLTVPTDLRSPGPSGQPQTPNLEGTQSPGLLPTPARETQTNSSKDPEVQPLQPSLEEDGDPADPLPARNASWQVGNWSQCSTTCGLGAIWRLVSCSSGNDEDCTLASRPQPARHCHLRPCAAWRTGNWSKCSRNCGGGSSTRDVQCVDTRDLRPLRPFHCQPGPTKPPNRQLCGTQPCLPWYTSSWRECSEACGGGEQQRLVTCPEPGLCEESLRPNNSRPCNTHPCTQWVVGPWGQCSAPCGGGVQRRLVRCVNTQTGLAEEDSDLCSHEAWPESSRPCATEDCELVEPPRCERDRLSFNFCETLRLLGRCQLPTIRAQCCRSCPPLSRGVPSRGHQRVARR
Assay: TMT10 TAILS N-terminomics, HUVEC experiment (process replicates, trypsin/AspN digest)
Type: cell-based, human
Conditions: HUVEC TAILS HC; log fold change of N-terminal peptide, Ad-mADAMTS7 EQ over Luc
Could you keep your reply to the number by itself?

Solved entries (count: 3):
SERBP1_56 (QAAAQTNSNAAGKQLR; listed as Homo sapiens) : −0.20
LTBP3_205 (HAAFLVPLGPGQISA; listed as Homo sapiens) : −0.13
PSAP_301 (LVEPIKKH; listed as Homo sapiens) : −0.06

With those in mind, consider the next substance.
Lab request: please report logFC.mEQ.over.Luc under test system mouse ADAMTS7 (Mus musculus, UniProt Q68SA9, E373Q) for ECM1_108 (QEAVPLQK; listed as Homo sapiens)
0.09
